# Tested on: Pseudoperonospora cubensis (the causal agent of cucumber downy mildew)
# Test summary: Test B: cucumber downy mildew, preventive spray on cucumber seedlings
# Type: in vivo
# Condition set: Pseudoperonospora cubensis, component (b) alone, 2 ppm; read-out: CDM Obsd (observed effect, cucumber downy mildew)

Sample smiles	Target or system	pest or weed control at 2 ppm
O=[N+]([O-])c1cc(C(F)(F)F)c(Cl)c([N+](=O)[O-])c1Nc1ncc(C(F)(F)F)cc1Cl	Pseudoperonospora cubensis (the causal agent of cucumber downy mildew)	89%
O=C1c2ccccc2C(=O)N1SC(Cl)(Cl)Cl	Pseudoperonospora cubensis (the causal agent of cucumber downy mildew)	0%
COc1ccc(C(=CC(=O)N2CCOCC2)c2ccc(Cl)cc2)cc1OC	Pseudoperonospora cubensis (the causal agent of cucumber downy mildew)	88%
CCNC(=O)NC(=O)/C(C#N)=N/OC	Pseudoperonospora cubensis (the causal agent of cucumber downy mildew)	0%
N#Cc1c(Cl)c(Cl)c(Cl)c(C#N)c1Cl	Pseudoperonospora cubensis (the causal agent of cucumber downy mildew)	0%
COC(=O)N(OC)c1ccccc1COc1ccn(-c2ccc(Cl)cc2)n1	Pseudoperonospora cubensis (the causal agent of cucumber downy mildew)	68%
